- Test system: TF-1 cells transduced with an empty retroviral vector (Control)
- experimental details: Inhibitor sensitivity of TF-1 cell populations, CellTiter-Blue, 72 h
- Assay type: cell-based, human
- recorded conditions: Homo sapiens, TF-1; empty vector control, 72 h
- Experimental: Cells were seeded at a density of 100,000 cells per 1.0 ml in 48-well culture plates. Compounds were added to various concentrations while holding the DMSO concentration constant at 0.1%. Cell viability was assessed 72 hours later using the CellTiter-Blue Cell Viability assay (Promega) according to the manufacturer’s protocol and a SpectraMax Multi-Mode Microplate Reader (Molecular Devices). […]
// IC50 lookup, one value per entry

Take a look at these entries with their results.
- compound: "CCN1CCN(Cc2ccc(NC(=O)c3ccc(C)c(Oc4ccnc5[nH]ccc45)c3)cc2C(F)(F)F)CC1"
  recorded value: "> 1000 nM"
- compound: "COc1cc(N2CCC(O)CC2)ccc1Nc1nc(Nc2ccccc2S(=O)(=O)C(C)C)c2cn[nH]c2n1"
  recorded value: "> 3000 nM"

So what does the record say about IC50 for COc1cc(N2CCC(N3CCN(C)CC3)CC2)ccc1Nc1ncc(Cl)c(Nc2ccccc2S(=O)(=O)C(C)C)n1 [TAE-684, reference compound] ?
> 1000 nM

The measurements presented in this section are drawn from paper PMC5519068.
